TARGET DESC: FGFR2b alpha IIIb antigen (UniProt P21802)
TEST: SPR (Biacore), antibody immobilized, FGFR2b alpha IIIb in flow
Each record here notes measured Binding Stoichiometry.

[[record]]
binder = "10164 (antibody, V domains shown, the duobody scheme implies IgG1 with K409R or F405L; also called Antibody C; N10164) VH: QVQLVESGGGLVKPGGSLRLSCAASGFTFSSYALSWVRQAPGKGLEWVGRIRSKIDGGTTDYAAPVKGRFTISRDDSKNTLYLQMNSLKTEDTAVYYCARDRSPSDSSAFAIWGQGTLVTVSS VL: DIELTQPPSVSVSPGQTASITCSGDNLGSQYVDWYQQKPGQAPVLVIYDDNDRPSGIPERFSGSNSGNTATLTISGTQAEDEADYYCQSWDSLSVVFGGGTKLTVLG"
reading = 1.9

[[record]]
binder = "M048-D01 (antibody, V domains shown, Parental bivalent monospecific antibody; also called Antibody A; Bayer) VH: EVQLLESGGGLVQPGGSLRLSCAASGFTFSSYAMSWVRQAPGKGLEWVSAISGSGTSTYYADSVKGRFTISRDNSKNTLYLQMNSLRAEDTAVYYCARVRYNWNHGDWFDPWGQGTLVTVSS VL: QSVLTQPPSASGTPGQRVTISCSGSSSNIGNNYVSWYQQLPGTAPKLLIYENYNRPAGVPDRFSGSKSGTSASLAISGLRSEDEADYYCSSWDDSLNYWVFGGGTKLTVLG"
reading = 1.7

[[record]]
binder = "2B 1.3.12 (antibody, V domains shown, the duobody scheme implies IgG1 with K409R or F405L; also called Antibody D; GE) VH: EVQLVESGGGLVQPGGSLRLSCAASGFPFTSTGISWVRQAPGKGLEWVGRTHLGDGSTNYADSVKGRFTISADTSKNTAYLQMNSLRAEDTAVYYCARTYGIYDTYDMYTEYVMDYWGQGTLVTVSS VL: DIQMTQSPSSLSASVGDRVTITCRASQDVDTSLAWYKQKPGKAPKLLIYSASFLYSGVPSRFSGSGSGTDFTLTISSLQPEDFATYYCQQSTGHPQTFGQGTKVEIK"
reading = 1.9


Would you kindly look at the next entry?
Answer with reported Binding Stoichiometry of 12433 (antibody, V domains shown, the duobody scheme implies IgG1 with K409R or F405L; also called Antibody F; N12433) VH: QVQLVQSGAEVKKPGESLKISCKGSGYSFTNYYIHWVRQMPGKGLEWMGAIYPDNSDTTYSPSFQGQVTISADKSISTAYLQWSSLKASDTAMYYCARGADIWGQGTLVTVSS VL: DIQMTQSPSSLSASVGDRVTITCRASQDIDPYLSNWYQQKPGKAPKLLIYDASNLQSGVPSRFSGSGSGTDFTLTISSLQPEDFATYYCQQTTSHPYTFGQGTKVEIK
2.1
